System: Rattus norvegicus
Test: Intravenous dose required to decrease mean arterial blood pressure (MABP) 50 mm Hg
Assay type: functional
As shown below, each of these compounds has a reported Dose value.
Write the number in µg/kg without appending the unit.

These recorded examples may help you get a feel for the data.
{"columns": ["compound", "unit.abbreviation", "Dose"],
 "data": [
  ["CCCCCCCCCCCCCCCCOCC(COP(=O)([O-])OCC(C)[N+](C)(C)C)OC(C)=O (centres undefined)", "µg/kg", 0.15],
  ["CCCCCCCCCCCCCCCCOCC(COP(=O)([O-])OCCC[N+](C)(C)C)OC(C)=O (centres undefined)", "µg/kg", 1.43],
  ["CCCCCCCCCCCCCCCCOCC(COP(=O)([O-])Oc1cccc(C[N+](C)(C)C)c1)OC(C)=O (centres undefined)", "µg/kg", 1.36],
  ["CCCCCCCCCCCCCCCCOCC(COP(=O)([O-])OCCCC[N+](C)(C)C)OC(C)=O (centres undefined)", "µg/kg", 4.84],
  ["CCCCCCCCCCCCCCCCOCC(COP(=O)([O-])OCC(c1ccccc1)[N+](C)(C)C)OC(C)=O (centres undefined)", "µg/kg", 3.93],
  ["CCCCCCCCCCCCCCCCCCOCC(COP(=O)([O-])OCC[N+](C)(C)C)OC(C)=O (centres undefined)", "µg/kg", 3.17],
  ["CCCCCCCCCCCCCCCCOCC(COP(=O)([O-])OCCCCCC[N+](C)(C)C)OC(C)=O (centres undefined)", "µg/kg", 164.9]
]}

The record that follows has no Dose shown yet.
[ask] # query: Dose | item CCCCCCCCCCCCCCCCOCC(COP(=O)([O-])OC(C)C[N+](C)(C)C)OC(C)=O (centres undefined) | system: Rattus norvegicus
[reply] 1.16

----------
Test system: Rattus norvegicus
Experiment: Intravenous dose required to decrease mean arterial blood pressure (MABP) 50 mm Hg
Assay type: functional
As shown below, each of these compounds has a reported Dose value.
Write the number in mg/kg without appending the unit.

{"columns": ["compound", "Dose, mg/kg"],
 "data": [
  ["CCCCCCCCCCCCCCCCCCOCC(COP(=O)([O-])CC[N+](C)(C)C)OC(C)=O (centres undefined)", 0.07654],
  ["CCCCCCCCCCCCCCCCOCC(COP(=O)([O-])OCC[N+](C)(C)C)OC(C)=O (centres undefined)", 0.00125]
]}

The record that follows has no Dose shown yet.
[ask] State the recorded Dose for this entry: CCCCCCCCCCCCCCCCCCOCC(COP(=O)([O-])OCCCC[N+](C)(C)C)OC(C)=O (centres undefined)
[reply] 0.01585
